// data source = the RNAGym collection of RNA variant scans (doi:10.7554/elife.90254)

B1: LINE1-full (parent)
chain: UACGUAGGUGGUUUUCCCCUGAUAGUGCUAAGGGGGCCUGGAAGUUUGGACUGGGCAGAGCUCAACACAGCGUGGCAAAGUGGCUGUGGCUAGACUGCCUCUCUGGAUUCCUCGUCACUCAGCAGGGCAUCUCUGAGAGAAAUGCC

- Variants of: B1
- Assay Info: self-cleavage, relative activity (ratio to wild type); higher = more cleavage; in vitro, sequencing; the parent is a self-cleaving ribozyme
Consider the following variants and their measured self-cleavage readings.
Could you keep your reply to the number by itself?

# annotated cases, reported self-cleavage shown
Using the record for U62G C63U , report its self-cleavage.
0.07

Now the same for G55C C146U
0.25

Now the same for U134G U143G
0.88

Now the same for C19U A22G
1.18

Now the same for C68U A129C
0.22

Note: attention shifts to another entry.
Using the record for U47C C120U , report its self-cleavage.
1.72
